test system: MS2 coat protein; assay: apparent KD of MS2 coat protein; designed switch direction (-1 OFF switch, 1 ON switch): -1; higher = weaker reporter binding; conditions: input ligand: FMN 200 uM
Readout kind: apparent KD of MS2 coat protein (nM)
Provide the reading as a plain figure in nM.

Give its apparent KD of MS2 coat protein value. Item: AAGACACAUGAGGAUCACCCAUGUGAGGAUAUUUGAUGCGUACCUACAGGACUGCGAUAAAGAAGGCAUAAGGG [Eternabot (L2) Solution 80] (Eterna round: R97, puzzle: Exclusion 1)
50.3

Give its apparent KD of MS2 coat protein value. Item: AGCAAGUUAAGGUUGAUGCACAUGAGGAUCACCCAUGUUCGUCUUACAUGGAAAGUGGACGCGUUUAUGGAAAGGAG [Eternabot (L2) Solution 36] (Eterna round: R97, puzzle: Sensor, turn-off variant 1)
28.2

Give its apparent KD of MS2 coat protein value. Item: UGUUGUCGCGUAGGAUAUGUAUGAGGAUCACCCAUUAAUAAAUUUUAACCACGAGGAUCACCCGUGUAGAAGGACGGGACAACA [pwkr exNG2 2xF5 1xFMN.16] (Eterna round: R96, puzzle: Exclusion NG 2)
37.9

Give its apparent KD of MS2 coat protein value. Item: GUCAGGAAUGUAGGAUAUCUGCACGUGUAGUGCAGAGAAGGACAUGAGGAUCACCCAUGUAUAGUAGCUUCGGCUACACCUGAC [ENG1-A3] (Eterna round: R96, puzzle: Exclusion NG 1)
18

Give its apparent KD of MS2 coat protein value. Item: GAAUGAGAGCAGGAUAUCUUAUAAAUGUAUGGAAGAGAAGGGCUCACAUGAGGAUCACCCAUGUGGUCCUAGAU [jl-ex6-4.70 jandersonlee mod] (Eterna round: R97, puzzle: Exclusion 6)
215

Give its apparent KD of MS2 coat protein value. Item: UUAUAUAGUAUAGGAUAUUAGAGGAGAAUGGUGAUAGAGACAUGAGGAUCACCCAUGUGAGGAGAUAAGAAGGGUAAUAAUUAU [AK ExNG2-V2-3] (Eterna round: R96, puzzle: Exclusion NG 2)
326

Give its apparent KD of MS2 coat protein value. Item: CAGUACUGAGGAUAUACAUGAGGAUCACCCAUGUGUACCAGCUAGGAUACUAGCAAAAGUAGAAGGCAGUACUG [Mat - Exclusion 3 - Eli Mod - D21] (Eterna round: R97, puzzle: Exclusion 3)
31.2

Give its apparent KD of MS2 coat protein value. Item: UUUCUUGGGCAAGGAUAUCCUGUGCGGUUCCGGCUCGUGUCUGUCACAUGAGGAUCACCCAUGUGGGAGAAGGUGCCUGCGGUC [Design 82] (Eterna round: R96, puzzle: Exclusion NG 2)
14.4

Give its apparent KD of MS2 coat protein value. Item: UGCCCAGCAGGAUAUACAUGAGGAUCACCCAUGUCGAUUCAGUACGACUUAGUGCAACGUAGAAGGGCUGGGCC [Eternabot (L1) Solution 84] (Eterna round: R97, puzzle: Exclusion 3)
405

Every entry's value here was drawn from the supplement of paper PMC9170038.
